Test settings: pH 2.7
Marks after values point to notes of the source that are not given here.
Property measured: LogP

>>> reported_measurement("C=CCCOC(=O)Nc1cccc(CO/N=C(/c2ccccc2)c2noc(=O)n2C)n1 [Example 363]")
"3.71 [a]"
>>> reported_measurement("CCCOC(=S)Nc1cccc(CO/N=C(/c2ccccc2)c2noc(=O)n2C)n1 [Example 283]")
"4.11 [a]"
>>> reported_measurement("Cn1c(/C(=N\\OCc2cccc(NC(=O)c3ccc(Br)cc3)n2)c2ccccc2)noc1=O [Example 187]")
"4.14 [a]"
>>> reported_measurement("Cc1cccc(CCOC(=O)Nc2cccc(CO/N=C(/c3ccccc3)c3noc(=O)n3C)n2)c1 [Example 210]")
"4.53 [a]"
>>> reported_measurement("Cn1c(/C(=N\\OCc2cccc(NC(=O)COc3ccccc3)n2)c2ccccc2)noc1=O [Example 313]")
"3.73 [a]"
>>> reported_measurement("Cn1c(C(=NOCc2cccc(NC(=O)OCCOC3CCCCC3)n2)c2ccccc2)noc1=O [compound 496]")
"4.31 [a]"
>>> reported_measurement("CCCCCC(=O)Nc1nc(CO/N=C(/c2ccccc2)c2noc(=O)n2C)cs1 [Example 198]")
"3.76 [a]"
>>> reported_measurement("C=CC(=O)Nc1cccc(CO/N=C(/c2ccccc2)c2noc(=O)n2C)n1 [Example 304]")
"2.77 [a]"
>>> reported_measurement("Cc1ccc(/C(=N/OCc2csc(NC(=O)C3COc4ccccc4O3)n2)c2noc(=O)n2C)cc1 (racemic) [Example 392]")
"3.9 [a]"
>>> reported_measurement("Cn1c(/C(=N\\OCc2cccc(NC(=O)OCC#Cc3ccccc3)n2)c2ccccc2)noc1=O [compound 468]")
"4.25 [a]"
>>> reported_measurement("CC/C=C\\CCOC(=O)Nc1cccc(CO/N=C(/c2ccccc2)c2noc(=O)n2C)n1 [compound 540]")
"4.44 [a]"
>>> reported_measurement("Cn1c(/C(=N\\OCc2csc(NC(=O)c3ccccc3Cl)n2)c2ccccc2)noc1=O [Example 57]")
"3.46 [a]"
>>> reported_measurement("CCc1cccc(OC(=O)Nc2cccc(CO/N=C(/c3ccccc3)c3noc(=O)n3C)n2)c1 [compound 435]")
"4.34 [a]"
>>> reported_measurement("CC(CC1CCCCC1)Nc1cccc(CO/N=C(/c2ccccc2)c2noc(=O)n2C)n1 (stereo not shown) [Example 236]")
"5.14 [a]"
>>> reported_measurement("Cn1c(/C(=N\\OCc2cccc(NC(=O)OCC3CC=CCC3)n2)c2ccccc2)noc1=O (stereo not shown) [compound 526]")
"4.51 [a]"
>>> reported_measurement("Cc1cccc(/C(=N/OCc2cccc(NC(=O)c3cccc(F)c3)n2)c2noc(=O)n2C)c1 [Example 391]")
"3.99 [a]"

---

Test settings: pH 2.7
Marks after values point to notes of the source that are not given here.
Below, each entry is listed alongside its reported LogP.
Property measured: LogP

>>> reported_measurement("Cn1c(/C(=N\\OCc2cccc(NC(=O)COC3CCCC3)n2)c2ccccc2)noc1=O")
"4.04 [a]"
>>> reported_measurement("Cn1c(/C(=N\\OCc2cccc(NC(=O)c3ccccc3Oc3ccccc3)n2)c2ccccc2)noc1=O")
"4.76 [a]"
>>> reported_measurement("Cc1ccc(OCC(=O)Nc2nc(CO/N=C(/c3ccccc3)c3noc(=O)n3C)cs2)cc1")
"3.8 [a]"
>>> reported_measurement("CCCCC(C)(C)C(=O)Nc1cccc(CO/N=C(/c2ccccc2)c2noc(=O)n2C)n1")
"4.63 [a]"
>>> reported_measurement("Cn1c(/C(=N\\OCc2cccc(NC(=O)OCC3CCCC3)n2)c2ccccc2)noc1=O")
"4.53 [a]"
>>> reported_measurement("Cc1cccc(C(=O)Nc2cccc(CO/N=C(/c3ccccc3)c3noc(=O)n3C)n2)c1")
"3.87 [a]"
>>> reported_measurement("Cn1c(/C(=N\\OCc2cccc(NC(=O)OCC3CC3)n2)c2ccccc2)noc1=O")
"3.64 [a]"
>>> reported_measurement("Cc1ccccc1OC(=O)Nc1cccc(CO/N=C(/c2ccccc2)c2noc(=O)n2C)n1")
"3.96 [a]"
